System: BXPC-3;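 further: growth inhibition of human BxPC-3 cells, read out by a cell viability assay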
Assay: cells
Format: functional, cell-based, Homo sapiens
Details: Homo sapiens, BXPC-3
Description: SANGER: Inhibition of human BxPC-3 cell growth in a cell viability assay.
pIC50: −log10 of the molar value.
Test readout: pIC50

Report the value of pIC50 obtained on BXPC-3 for `O=C(O)c1ccc(-c2c[nH]c3ncc(-c4ccccc4)cc23)cc1C1CCCC1` .
< 4.80

Report the value of pIC50 obtained on BXPC-3 for `CC(C)c1ccccc1Cc1cc(C(=O)Nc2ccc(S(=O)(=O)c3ccccc3C(C)(C)C)cc2)c(O)c(O)c1O` .
5.61

====

System: NCI-H2052;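 further: growth inhibition of NCI-H2052 cells, read out with a cell viability assay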
Assay: cells
Format: functional, cell-based, Homo sapiens
Conditions: nci-h2052
Description: SANGER: Inhibition of human NCI-H2052 cell growth in a cell viability assay.
Here, each record is paired with measured pIC50 data.
pIC50 here is simply -log10 of the concentration when that concentration is written in mol/L.

Identify the reported pIC50 for the following entry. `BLEOMYCIN`
5.53

Identify the reported pIC50 for the following entry. `CISPLATIN`
3.78

====

Tested on: D-392MG
Test: cells
Format: functional, cell-based, Homo sapiens
Details: Homo sapiens, D-392MG
Test readout: IC50

Study these solved cases before continuing.
Compound	IC50
CO[C@H]1C[C@@H]2CC[C@@H](C)[C@@](O)(O2)C(=O)C(=O)N2CCCC[C@H]2C(=O)O[C@H]([C@H](C)C[C@@H]2CC[C@@H](OC(=O)C(C)(CO)CO)[C@H](OC)C2)CC(=O)[C@H](C)/C=C(\C)[C@@H](O)[C@@H](OC)C(=O)[C@H](C)C[C@H](C)/C=C/C=C/C=C/1C [TEMSIROLIMUS]	> 0.2 µM
COc1cc2ncn(-c3cc(OCc4ccccc4S(C)(=O)=O)c(C#N)s3)c2cc1OC [GSK-319347A]	> 5 µM

Next item in the queue.
Identify the reported IC50 for the following entry. Nc1cccc2c1CN(C1CCC(=O)NC1=O)C2=O (stereo unspecified) [LENALIDOMIDE]
> 5 µM

====

Here, each record is paired with measured IC50 data.
System: Ca-Ski;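 further: cell viability assay measuring inhibition of Ca-Ski cell growth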
Test: cells
Assay type: functional, cell-based, Homo sapiens
Conditions: Homo sapiens, Ca-Ski
Description: SANGER: Inhibition of human Ca-Ski cell growth in a cell viability assay.

Identify the reported IC50 for the following entry. `CS(=O)(=O)c1ccc(C(=O)Nc2ccc(Cl)c(-c3ccccn3)c2)c(Cl)c1`
> 10 µM

Identify the reported IC50 for the following entry. `Oc1ccc2ccccc2c1SSc1c(O)ccc2ccccc12`
> 32 µM

Identify the reported IC50 for the following entry. `CC1(C)CNc2cc(NC(=O)c3cccnc3NCc3ccncc3)ccc21`
> 2 µM

Identify the reported IC50 for the following entry. `CN(C)C(=N)NC(=N)N`
> 20000 µM

Identify the reported IC50 for the following entry. `O=C(O)c1ccc(-c2c[nH]c3ncc(-c4ccccc4)cc23)cc1C1CCCC1`
> 16 µM

Identify the reported IC50 for the following entry. `CCN(CC)CCCCNc1ncc2cc(-c3cc(OC)cc(OC)c3)c(NC(=O)NC(C)(C)C)nc2n1`
> 2 µM

====

System: CWR22R
Experiment: cells
Assay type: functional, cell-based, Homo sapiens
Settings: Homo sapiens, 22Rv1
Description: SANGER: Inhibition of human 22RV1 cell growth in a cell viability assay.
Test readout: IC50 (µM)
Please state the figure in µM; there is no need to write the unit.

     molecule_smiles  test_readout  meas_value
0  CN(C)C(=N)NC(=N)N          IC50       18000

Identify the reported IC50 for the following entry. `CC(C)c1ccccc1Cc1cc(C(=O)Nc2ccc(S(=O)(=O)c3ccccc3C(C)(C)C)cc2)c(O)c(O)c1O`
1.03

====

System: SHP77;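 further: growth inhibition of human SHP-77 cells measured by a cell viability assay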
Experiment: cells
Assay type: functional, cell-based, Homo sapiens, SHP-77
Details: Homo sapiens, SHP77
Description: SANGER: Inhibition of human SHP-77 cell growth in a cell viability assay.
Here, each record is paired with measured IC50 data.

Compound	Test readout	Meas value
Cn1cnc2c(F)c(Nc3ccc(Br)cc3Cl)c(C(=O)NOCCO)cc21 [SELUMETINIB]	IC50	> 4000 nM
COc1cc(-c2nn([C@H]3CC[C@H](N4CCN(C(C)=O)CC4)CC3)c3ncnc(N)c23)ccc1NC(=O)c1cc2ccccc2n1C	IC50	> 5120 nM
N#Cc1c(O)c2c(-c3ccc(-c4ccccc4O)cc3)csc2[nH]c1=O	IC50	383 nM
CCC/C=C/C=C/C(=O)O[C@H]1/C(=C/C(=O)OC)C[C@H]2C[C@H]([C@@H](C)O)OC(=O)C[C@H](O)C[C@@H]3C[C@H](OC(C)=O)C(C)(C)[C@](O)(C[C@@H]4C/C(=C/C(=O)OC)C[C@H](/C=C/C(C)(C)[C@]1(O)O2)O4)O3 [BRYOSTATIN 1]	IC50	> 8 nM
COc1cc2c(Nc3ccc(NC(=O)c4ccccc4)cc3)ncnc2cc1OCCCN1CCOCC1	IC50	> 4000 nM

Identify the reported IC50 for the following entry. CO[C@H]1C[C@@H]2CC[C@@H](C)[C@@](O)(O2)C(=O)C(=O)N2CCCC[C@H]2C(=O)O[C@H]([C@H](C)C[C@@H]2CC[C@@H](OC(=O)C(C)(CO)CO)[C@H](OC)C2)CC(=O)[C@H](C)/C=C(\C)[C@@H](O)[C@@H](OC)C(=O)[C@H](C)C[C@H](C)/C=C/C=C/C=C/1C [TEMSIROLIMUS]
> 200 nM

Identify the reported IC50 for the following entry. CCN(CC)CCCCNc1ncc2cc(-c3cc(OC)cc(OC)c3)c(NC(=O)NC(C)(C)C)nc2n1 [PD-173074]
> 2000 nM

====

System: SAOS-2;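 further: growth inhibition of human Saos-2 cells determined by a cell viability assay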
Test: cells
Assay type: functional, cell-based, Homo sapiens
Conditions: saos-2
Description: SANGER: Inhibition of human Saos-2 cell growth in a cell viability assay.
Test readout: pIC50
pIC50 here is simply -log10 of the concentration when that concentration is written in mol/L.

Report the value of pIC50 obtained on SAOS-2 for `BLEOMYCIN` .
6.76

====

Here, each record is paired with measured IC50 data.
Test system: DMS-114
Assay: cells
Type: functional, cell-based, Homo sapiens
Settings: Homo sapiens, DMS-114

Report the value of IC50 obtained on DMS-114 for `Cc1cc([N+](=O)[O-])ccc1NS(=O)(=O)c1cc(Cl)ccc1Cl` .
> 32 µM

Report the value of IC50 obtained on DMS-114 for CS(=O)(=O)c1ccc(C(=O)Nc2ccc(Cl)c(-c3ccccn3)c2)c(Cl)c1 [VISMODEGIB] .
> 10 µM

Report the value of IC50 obtained on DMS-114 for CCC/C=C/C=C/C(=O)O[C@H]1/C(=C/C(=O)OC)C[C@H]2C[C@H]([C@@H](C)O)OC(=O)C[C@H](O)C[C@@H]3C[C@H](OC(C)=O)C(C)(C)[C@](O)(C[C@@H]4C/C(=C/C(=O)OC)C[C@H](/C=C/C(C)(C)[C@]1(O)O2)O4)O3 [BRYOSTATIN 1] .
> 0.008 µM

====

System: LB831-BLC
Assay: cells
Type: functional, cell-based, Homo sapiens
Conditions: Homo sapiens, LB831-BLC
Description: SANGER: Inhibition of human LB831-BLC cell growth in a cell viability assay.
Here, each record is paired with measured IC50 data.
Please state the figure in nM; there is no need to write the unit.

>>> df
                            molecule_smiles  test_readout  measure_unit  meas_value
0  COc1cccc2c1C(=O)c1c(O)c3c(c(O)c1C2=O)C[C@@](O)(C(=O)CO)C[C@@H]3O[C@H]1C[C@H](N)[C@H](O)[C@H](C)O1          IC50            nM         206

Identify the reported IC50 for the following entry. `COc1cc(-c2nn([C@H]3CC[C@H](N4CCN(C(C)=O)CC4)CC3)c3ncnc(N)c23)ccc1NC(=O)c1cc2ccccc2n1C`
593

====

System: NCI-H1963;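 further: cell growth inhibition of the human line, determined with a cell viability assay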
Experiment: cells
Type: functional, cell-based, Homo sapiens
Details: nci-h1963
Description: SANGER: Inhibition of human NCI-H1963 cell growth in a cell viability assay.
Test readout: pIC50
pIC50 here is simply -log10 of the concentration when that concentration is written in mol/L.

Identify the reported pIC50 for the following entry. `BLEOMYCIN`
3.72

====

Here, each record is paired with measured pIC50 data.
Test system: OVCAR-8
Experiment: cells
Assay type: functional, cell-based, Homo sapiens
Settings: Homo sapiens, OVCAR-8
Description: SANGER: Inhibition of human OVCAR-8 cell growth in a cell viability assay.
pIC50 here is simply -log10 of the concentration when that concentration is written in mol/L.

Study these solved cases before continuing.
>>> print(df.to_string())
                                   compound  meas_value
0  Nc1ccn([C@@H]2O[C@H](CO)[C@@H](O)C2(F)F)c(=O)n1 [GEMCITABINE]        8.10
1  CC(C)c1ccccc1Cc1cc(C(=O)Nc2ccc(S(=O)(=O)c3ccccc3C(C)(C)C)cc2)c(O)c(O)c1O        6.33

Next item in the queue.
Identify the reported pIC50 for the following entry. `Cc1cc([N+](=O)[O-])ccc1NS(=O)(=O)c1cc(Cl)ccc1Cl`
5.37

====

System: NCI-H510A
Assay: cells
Format: functional, cell-based, Homo sapiens
Settings: Homo sapiens, NCI-H510A
Description: SANGER: Inhibition of human NCI-H510A cell growth in a cell viability assay.
Test readout: IC50 (µM)
Please state the figure in µM; there is no need to write the unit.

>>> df
                                   compound  test_readout  meas_value
0  COc1cc2ncn(-c3cc(OCc4ccccc4C(F)(F)F)c(C(N)=O)s3)c2cc1OC [GW843682X]          IC50      0.0166
1  COc1cc(-c2nn([C@H]3CC[C@H](N4CCN(C(C)=O)CC4)CC3)c3ncnc(N)c23)ccc1NC(=O)c1cc2ccccc2n1C          IC50        4.76
2             CN(C)C(=N)NC(=N)N [METFORMIN]          IC50        1310

Next item in the queue.
Identify the reported IC50 for the following entry. COc1cccc2c1C(=O)c1c(O)c3c(c(O)c1C2=O)C[C@@](O)(C(=O)CO)C[C@@H]3O[C@H]1C[C@H](N)[C@H](O)[C@H](C)O1 [DOXORUBICIN]
0.36
